All figures here come from ChEMBL document CHEMBL5143531.

- Method Description: Inhibition of yeast alpha-glucosidase using p-nitrophenyl glycoside as substrate preincubated with enzyme for 15 mins followed by substrate addition for 30 mins
- Set-up: species or system Saccharomyces cerevisiae
Measure: IC50 (µM)
// units = µM; emit number, no label

// lookup IC50 for `O=C(N/N=C/c1cc(O)c(O)c(O)c1)c1cc2ccccc2[nH]1`
2.3

###

# inhibition values compiled below
- Tested on: Saccharomyces cerevisiae
- Method Description: Inhibition of yeast alpha-glucosidase at 100 uM
Respond numerically; units are % and should not be typed.

Example cases with answers are listed next.
{"columns": ["Compound", "Measure", "Assay Result"],
 "data": [
  ["O=C1Nc2ccccc2C1=Cc1ccccn1", "inhibition", -10],
  ["O=C1Nc2ccc(Br)cc2C1=CC(=O)c1ccco1 (mixture of isomers)", "inhibition", -3.81],
  ["O=C1Nc2ccc(Br)cc2C1=Cc1ccncc1 (mixture of isomers)", "inhibition", -0.73]
]}

GET /values?readout=inhibition&item= CCC(=O)Nc1cc(NC(=O)CC)c2c(c1)C(CC#N)(OC(=O)CC)C(=O)N2 (stereo not given)
14.4

Also CC(=O)Nc1ccc2c(c1)C(=Cc1cccc(O)c1)C(=O)N2 (single isomer, unassigned; isomer 1) ?
14.9
